- Tested on: HS 578T breast
- Assay Info: NCI tumour cell line growth inhibition, 48 h
Result Type: TGI

{"columns": ["Compound", "TGI"],
 "data": [
  ["CN(C)C(=O)C1CCN(Cc2c[nH]c3ccccc23)CC1", "> 100 µM"],
  ["COC(=O)c1c2c(cc3c1CC1(Cc4cc5c(cc4C1)CCC5)C3)CCC2", "> 100 µM"],
  ["COc1ccc2c(c1)C(=O)c1c-2n(CCCN)c(=O)c2cc(OC)c(OC)cc12", "4.81 µM"],
  ["C=C1C(=O)OC2CC3(C)CCCC(C)C3=CC12 (stereo unspecified)", "36.6 µM"],
  ["CCCCCCN(C)Cc1ccc(OCCOc2ccc(CN(C)CCCCCC)cc2)cc1", "3.97 µM"],
  ["O=C1C(Cl)C(c2cc3cc(Br)ccc3nc2Cl)N1c1c(Cl)cccc1Cl (stereo unspecified)", "> 25 µM"]
]}

Below is a list of compounds. For each, state its recorded TGI.
1. O=S(=O)(Nc1ccc2ccccc2c1)c1ccc(-c2cnc(C3CC3)o2)cc1
2. CN(O)C(=S)c1ccccc1

A.
1. 13.2 µM
2. > 100 µM

Give TGI for all compounds that follow.
1. CN(C)c1ccc(C(=NN)c2ccc(N(C)C)cc2)cc1
2. NC(=O)C(Nc1ccc(Cl)cc1)c1cc2cc(Br)ccc2nc1Cl (stereo unspecified)
3. N#Cc1c(N)nc(N2CCSCC2)c(C#N)c1-c1ccc(O)cc1

A.
> 100 µM
> 50 µM
> 100 µM
